Numbers sourced from patent US6747052B2.

# Tested on: T-47D
# METHOD DESCRIPTION: Caspase cascade activation (N-(Ac-DEVD)-N'-ethoxycarbonyl-R110 fluorogenic substrate) in T-47D cells
# Type: cell-based, Human
# EXPERIMENTAL CONDITIONS: Homo sapiens, T47D, 24 h incubation with compound
READOUT LABEL: pEC50
Would you please state pEC50, meaning minus log10 of the concentration in mol/L, as a bare number?

Lookup: Query pEC50 on T-47D for Cc1ccc(C=NNC(=O)c2[nH]c3ccc(C)cc3c2-c2ccccc2)cc1
Found: 6.52

Lookup: Give pEC50 (T-47D) of the following compound: O=C(NN=Cc1ccc([N+](=O)[O-])cc1)c1[nH]c2ccc(Cl)cc2c1-c1ccccc1
Found: 6.30

Lookup: # query: pEC50 | item Cc1ccc2[nH]c(C(=O)NN=Cc3ccc(N(C)C)cc3)c(-c3ccccc3)c2c1 | system: T-47D
Found: 5.62

Lookup: Form field: pEC50 recorded for Cc1c(C(=O)NN=Cc2ccc(N(C)C)cc2)[nH]c2ccc(Cl)cc12 with T-47D (enter value)
Found: 6.03

Lookup: Lab request: please report pEC50 under test system T-47D for Cc1c(C(=O)NN=Cc2ccccc2)[nH]c2ccc(Cl)cc12
Found: 5.37

Lookup: Notebook: pull reported pEC50 for T-47D, entry Cc1c(C(=O)NN=Cc2ccc(Cl)cc2)[nH]c2ccc(Cl)cc12
Found: 5.44

Lookup: Provide value of pEC50 for this record tested with T-47D: Cc1ccc(C=NNC(=O)c2[nH]c3ccc(Cl)cc3c2C)cc1
Found: 6.60

Lookup: Give T-47D pEC50 for Cc1c(C(=O)NN=Cc2ccc([N+](=O)[O-])cc2)[nH]c2ccc(Cl)cc12
Found: 5.70

---

# Test system: T-47D
# METHOD DESCRIPTION: Caspase cascade activation (N-(Ac-DEVD)-N'-ethoxycarbonyl-R110 fluorogenic substrate) in T-47D cells
# Assay type: cell-based, Human
# EXPERIMENTAL CONDITIONS: 24 h incubation with compound, 3 h substrate reading
Assign Caspase activity Ratio (net RFU of test compound to control) to each entry below.
Form rule: numeric answer, no unit written next to it.

Lookup: What does the record list as Caspase activity Ratio (net RFU of test compound to control) for Cc1ccc(C=NNC(=O)c2[nH]c3ccc(C)cc3c2-c2ccccc2)cc1 ?
Found: 3.1

Lookup: Could you share which Caspase activity Ratio (net RFU of test compound to control) value was measured for O=C(NN=Cc1ccc([N+](=O)[O-])cc1)c1[nH]c2ccc(Cl)cc2c1-c1ccccc1 ?
Found: 3

Lookup: Fill in: Caspase activity Ratio (net RFU of test compound to control) of Cc1c(C(=O)NN=Cc2ccccc2)[nH]c2ccc(Cl)cc12 is ___
Found: 5.1

Lookup: GET /values?readout=Caspase activity Ratio (net RFU of test compound to control)&item= Cc1c(C(=O)NN=Cc2ccc(Cl)cc2)[nH]c2ccc(Cl)cc12
Found: 4.2

Lookup: Query (molecule): Cc1c(C(=O)NN=Cc2ccc(N(C)C)cc2)[nH]c2ccc(Cl)cc12 ; field requested: Caspase activity Ratio (net RFU of test compound to control)
Found: 6.0

---

# Tested on: ZR-75-1
# METHOD DESCRIPTION: Caspase cascade activation (N-(Ac-DEVD)-N'-ethoxycarbonyl-R110 fluorogenic substrate) in ZR-75-1 cells
# Format: cell-based, Human
# EXPERIMENTAL CONDITIONS: Homo sapiens; ZR-75-1, 24 h incubation with compound
# Protocol: Human breast cancer cell lines T-47D and ZR-75-1 were grown according to media component mixtures designated by American Type Culture Collection +10% FCS (Invitrogen Corporation, Life Technologies division), in a 5% CO2-95% humidity incubator at 37° C. […] After the 3 h incubation, the samples were read for fluorescence as above (T=3 h). The Relative Fluorescence Unit values (RFU) were used to calculate the sample readings as follows: RFU(T=3h)−Control RFU(T=0)=Net RFU(T=3h) […]
READOUT LABEL: log10 of EC50 (log10 of the value in nM)
All values: base-10 log of EC50 in nM.

Lookup: Please report the recorded log10 of EC50 for Cc1c(C(=O)NN=Cc2ccc([N+](=O)[O-])cc2)[nH]c2ccc(Cl)cc12 [Compound A] .
Found: 2.73

Lookup: Sample Cc1ccc2[nH]c(C(=O)NN=Cc3ccc(N(C)C)cc3)c(-c3ccccc3)c2c1 [Example 14] — what was its log10 of EC50?
Found: 2.92

Lookup: Please look up its log10 of EC50: O=C(NN=Cc1ccc([N+](=O)[O-])cc1)c1[nH]c2ccc(Cl)cc2c1-c1ccccc1 [Compound B]
Found: 2.44

Lookup: May I ask what log10 of EC50 has been recorded for Cc1c(C(=O)NN=Cc2ccc(Cl)cc2)[nH]c2ccc(Cl)cc12 [Example 21] ?
Found: 3.44

Lookup: Entry Cc1c(C(=O)NN=Cc2ccccc2)[nH]c2ccc(Cl)cc12 [Example 2] has what log10 of EC50?
Found: 3.17

Lookup: What value of log10 of EC50 has been recorded for this entry: Cc1ccc(C=NNC(=O)c2[nH]c3ccc(Cl)cc3c2C)cc1 [Example 1]
Found: 2.27

Lookup: Sample Cc1c(C(=O)NN=Cc2ccc(N(C)C)cc2)[nH]c2ccc(Cl)cc12 [Example 3] — what was its log10 of EC50?
Found: 2.65

Lookup: Which log10 of EC50 value belongs to Cc1ccc(C=NNC(=O)c2[nH]c3ccc(C)cc3c2-c2ccccc2)cc1 [Example 13] ?
Found: 2.00

---

For each record, write down the corresponding Caspase activity Ratio (net RFU of test compound to control).
# Test system: T-47D
# METHOD DESCRIPTION: Caspase cascade activation (N-(Ac-DEVD)-N'-ethoxycarbonyl-R110 fluorogenic substrate) in T-47D cells
# Format: cell-based, Human
# EXPERIMENTAL CONDITIONS: 24 h incubation with compound, 3 h substrate reading
Lab note: write the figure by itself, no unit.

Lookup: Can you look up Caspase activity Ratio (net RFU of test compound to control) on T-47D for Cc1c(C(=O)NN=Cc2ccc([N+](=O)[O-])cc2)[nH]c2ccc(Cl)cc12 ?
Found: 6.9

Lookup: // lookup Caspase activity Ratio (net RFU of test compound to control) | system=T-47D | key= Cc1ccc2[nH]c(C(=O)NN=Cc3ccc(N(C)C)cc3)c(-c3ccccc3)c2c1
Found: 3.5

Lookup: Look up Caspase activity Ratio (net RFU of test compound to control) with T-47D for this molecule: Cc1ccc(C=NNC(=O)c2[nH]c3ccc(Cl)cc3c2C)cc1
Found: 3.7
